Ref: ChEMBL document CHEMBL1159144

target-or-test-system: Adrenergic receptor alpha-2 (Rattus norvegicus, UniProt P22086+P19328+P22909)
method-description: Binding affinity towards Alpha-2 adrenergic receptor
Type: protein assay
property-name: IC50 (µM)

// below: answered molecules
COc1ccccc1OCCNCCC(=O)N1CCCOc2c1cnn(C)c2=O	1.8
Cn1ncc2c(c1=O)OCCCN2C(=O)CNCC1COc2ccccc2O1 (stereo not given)	4.6

1 = COc1ccccc1OCCNCCCC(=O)N1CCCOc2c1cnn(C)c2=O
2 = Cn1ncc2c(c1=O)SCCCN2C(=O)CNCC1COc2ccccc2O1 (stereo not given)
3 = COc1ccccc1OCCNCC(=O)N1CCCOc2c1cnn(C)c2=O
(Q) Hello, I need these entries ordered by IC50, highest reading first. Thanks! Lab note: final answer is the ordered label list.
(A) 3, 1, 2
